Target: T1, IL-12 receptor endogenously expressed on THP-1 cells (UniProt P42701 24-662; Q99665 24-862)
T1 construct: whole, on cells
T1 sequence (Q99665 24-862, chain 2 of 2, other chains not shown): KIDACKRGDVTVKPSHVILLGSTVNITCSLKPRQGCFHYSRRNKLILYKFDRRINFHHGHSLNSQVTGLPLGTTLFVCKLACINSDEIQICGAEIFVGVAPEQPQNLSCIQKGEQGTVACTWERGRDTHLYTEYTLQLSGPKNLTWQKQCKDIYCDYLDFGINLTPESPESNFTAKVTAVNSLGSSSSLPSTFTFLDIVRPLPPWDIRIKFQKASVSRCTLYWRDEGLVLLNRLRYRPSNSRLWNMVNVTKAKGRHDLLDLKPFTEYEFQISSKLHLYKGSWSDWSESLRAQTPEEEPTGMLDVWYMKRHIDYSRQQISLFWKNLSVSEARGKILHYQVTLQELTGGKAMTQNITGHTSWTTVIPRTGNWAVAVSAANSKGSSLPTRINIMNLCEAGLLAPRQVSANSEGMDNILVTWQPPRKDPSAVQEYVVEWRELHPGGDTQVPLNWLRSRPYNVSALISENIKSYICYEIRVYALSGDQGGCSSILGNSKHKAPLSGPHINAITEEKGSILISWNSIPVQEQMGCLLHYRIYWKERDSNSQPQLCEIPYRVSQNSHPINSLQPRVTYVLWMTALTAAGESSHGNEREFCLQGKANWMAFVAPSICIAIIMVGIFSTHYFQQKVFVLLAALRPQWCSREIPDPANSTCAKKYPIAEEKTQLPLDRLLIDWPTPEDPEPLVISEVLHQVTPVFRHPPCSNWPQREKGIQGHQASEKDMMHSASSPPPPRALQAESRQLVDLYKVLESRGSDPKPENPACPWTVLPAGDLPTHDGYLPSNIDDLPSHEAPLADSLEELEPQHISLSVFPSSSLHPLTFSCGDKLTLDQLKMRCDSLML
Test: FACS, hybridoma supernatant, THP-1
Please respond with reported Fold over buffer for every item in the list.
Reply numerically in fold, unit not repeated.

Ask: State, in one line, measured Fold over buffer of 85801_04D10 (antibody, V domains shown, also called 85801_04D10A) VH: EVQLLESGGGLVQPGGSLRLSCAASGFTFSSYAMSWVRQAPGKGLEWVAGISGSGGGIYYADSVKGRFTISRDNSKNTLYLQLNSLRADDTAVYYCARRLIGYWYFDLWGRGTLVPVSS VL: DIQMTQSPSSLSASVGDRVTITCRASQGISNYLAWFQQKPGKAPKSLIYAASSLQSGVPSKFSGSGSGTDFTLTISSLQPEDFATYYCQQYNSYPPTFGGGTKVEIK
Reply: 42

Ask: State, in one line, measured Fold over buffer of 85801_05G01 (antibody, V domains shown, also called 85801_05G01A) VH: QVQLVQSGAEVKKPGASAKVSCKASGYTFTDYYLHWVRQAPGQGLEWMGWINPNNGGTHYAQKFQGRVTMTRDTSISTAYMELSRLRSDDTAVYYCAREMGGTTAFDYWGQGTLVTVSS VL: DIQMTQSPSSLSASVGDRVTITCRASQGIGNYLAWFQQRPGKAPKSLIYAASSLQSGVPSKFSGSGSGTDFTLTISSLQPADFAIYYCQQYNIYPYTFGPGTRLEIK
Reply: 7

Ask: State, in one line, measured Fold over buffer of 85801_01D14 (antibody, V domains shown, also called 85801_01D14A) VH: EVQLVESGGGLVKPGGSLRLSCAASGFTFSNAWMNWVRQAPGKGLEWVGRIKSKTDGGTTDYAAPVKGRFTVSRDDPKNTLYLQMNSLKTEDTAVYYCTTDPGWEFDYWGQGILVTVSS VL: DIQMTQSPSSLSASVGDRVTITCQASQDISNFLNWYQQKPGKAPNLLIYDASDLETGVPSRFSGSGSGTDFTFTISSLQPEDIATYYCQQYDNLPLTFGGGTKVEIK
Reply: 24

Ask: State, in one line, measured Fold over buffer of 85801_04M12 (antibody, V domains shown, also called 85801_04M12A) VH: QVQLVESGGGVVQPGRSLRLSCAASGFTFSSHGMHWVRQAPGKGLEWVAIIWYAGNKKYYADSVKGRFTISRDNSKNTLYLQMNSLRAEDTAVYYCARESLLNSASDIWGQGTMVTVSS VL: QSVLTQPPSVSAAPGQTVTISCSGSSSNIGNNYVSWYQQLPGTAPKLLIYDNNKRPSGIPDRFSGSKSGTSATLGITGLQTGDEADYYCGTWDSSLSAVVFGGGTKLTVL
Reply: 45

Ask: State, in one line, measured Fold over buffer of 85801_04D14 (antibody, V domains shown, also called 85801_04D14A) VH: QVHLVQSGAEVKKPGASVKVSCKASGYTFIDYYMHWVRQAPGQGLEWMGWINPNSGGTHYSQKFQGRVTMTWDTSISTAYMELSRLTSDDTAVYYCAREGDYISSSAFDYWGQGTLVTVSS VL: DIQLTQSPSFLSASVGDRVTITCRASQGISSYLAWYQQKPGKAPKVLIYAASTLQSGVPSRFSGSGSGTEFTLTISSLLPEDFATYFCQQLHRYPYTFGQGAKLEIK
Reply: 17

Ask: State, in one line, measured Fold over buffer of 85801_02011 (antibody, V domains shown, also called 85801_02O11A) VH: EVQLVESGGGLVQPGGSLRLSCAASGFTFSSYDMNWVRQAPGKGLEWISYINSRSSTIYYADSVKGRFTISRDNAKNSLYLQMNSLRDEDTALYYCAREIEDSMDVWGQGTTVTVSS VL: QSVLTQPPSVSAAPGQKVTISCSGSSSNIGNNYVSWYQQLPGTAPKLLIYDNNERPSGIPDRFSGSKSGTSATLGITGLQPGDEADYYCGTWDSSLSAGVFGGGTKLTVL
Reply: 35

Ask: State, in one line, measured Fold over buffer of 85801_01002 (antibody, V domains shown, also called 85801_01O02A) VH: QVQLVQSGAEVRKPGASVKVSCKASGYTFTDYYMHWVRQAPGQGLEWMGWINPDNGGANYAQRFLGRVTMTRDTSISTAYMELSRLRSDDTAVYYCAREGSGSPYAFDLWGLGTVVTVSS VL: DIQLTQSPSFLSASVGDRVTITCRASQGISSYLAWYQQKPGKAPKLLIYAASTLQSGVPSRFSGSGSGTEFTLTISSLQPEDFATYCCQQLNRYPFTFGQGTKLEIK
Reply: 38

Ask: State, in one line, measured Fold over buffer of 85801_01L02 (antibody, V domains shown, also called 85801_01L02A) VH: QVQLVHSGPEVKKPGASVKVSCKASGYTFTDYYMHWVRQAPGQGLEWMGWINPDSGGTNYAQKFQGRVTMTRDTSISTAYMELSRLRSDDTAVYHCAREGATSNFDYWGQGTLVTVSS VL: DIQMTQSPSSLSASVGDRVTITCRASQGISNYLAWFQQKPGKAPTSLIYAASNLQGGVPSKFSGSGSGTDFTLTISSLQPEDFATYYCQQYRYYPFTFGPGTKVDIK
Reply: 41

Ask: State, in one line, measured Fold over buffer of 85801_10F19 (antibody, V domains shown, also called 85801_10F19A) VH: QVQLVQSGAEVRKPGASVKVSCKASGYTFTDYYMHWVRQAPGQGREWMGWINPNSGGTHYAQKFQGRVTMTWDTSISTAYMELSRLRSDDTAVYYCAREGATTVYFDYWGQGTLVTVSS VL: DIQLTQSPSFLSASVGDRVTLTCRASQGINNYLAWYQEKPGKAPNPLIYDASTLQSGVPSRFSGSGSGTEFTLTISSLQPEDFATYYCQQLNMYPYTFGQGTKLEIK
Reply: 8

Ask: State, in one line, measured Fold over buffer of 85801_04M04 (antibody, V domains shown, also called 85801_04M04A) VH: QVQLVQSGAEVKKPGASVRVSCKASGYTFTSYYIHWVRQAPGQGLEWMGIINPSGGSTSYAQKFQGRVTMTRDTSTTTVYMELSSLRSEDTAVYYCAKSNWAYAFDIWGQGTMVTVSS VL: SSELTQDPAVSVALGQTVRITCQGDSLSSYYAGWYQQKPGQAPVLVIYGKNNRPSGIPDRFSGSSSEDTASLTITGAQAEDEADYYCNSRDSSDNHLVFGGGTKLTVL
Reply: 12

Ask: State, in one line, measured Fold over buffer of 85801_02K24 (antibody, V domains shown, also called 85801_02K24A) VH: QVQLQESGPGLVKPSETLSLTCTVSGGSISSYDWSWIRQSAGKGLEWIGRIYTSGSTIYNPSLKSRVTMSVDTSKNEISLKLSSVTAADTAFYYCAKDRGNYPHDAFDIWGQGTMITVSS VL: DIQLTQSPSFLSASVGDRVTITCRASQGISSFLAWYQQKPGKAPKLLIYAASTLQSGVPSRFSGSGSGTEFTLTISSLQPEDFATYYCQQLNGYPFTFGPGTKVDIK
Reply: 33
